This section presents compounds with their documented TGI values.
Test system: KM20L2 colon
Experiment: NCI tumour cell line growth inhibition, 48 h
The reply should contain only the number, in µM.

The following compounds have reported results that may help.
>>> df
                                   compound  measured_attribute  display_unit  observed
0        O=C1c2cnccc2Cc2cccc3c2N1c1ccccc1S3                 TGI            µM      34.8
1  COCC(=O)[C@]1(O)Cc2c(O)c3c(c(O)c2[C@@H](OC2CC(N)C(O)C(C)O2)C1)C(=O)c1c(OC)cccc1C3=O (stereo not given in full)                 TGI            µM     0.938
2      CCC[CH2][Sn]1([CH2]CCC)[O]C(=O)C[S]1                 TGI            µM      15.9

Let us examine a further case.
Query string: Return reported TGI. Input compound: CC[C@](O)(C(=O)O)c1cc2n(c(=O)c1CO)Cc1cc3ccccc3nc1-2
Result string: 3.96

---

Test system: T-47D breast
Assay: NCI tumour cell line growth inhibition, 48 h
This section presents compounds with their documented TGI values.

                                   compound  target_entity  measured_attribute  observed
0              FC1CCN(C2(c3cccs3)CCCCC2)CC1   T-47D breast                 TGI  > 100 µM
1  O=C1OCC2=C1C(c1cccc(F)c1)c1cc3c(cc1N2CCO)OCCO3 (stereo not drawn)   T-47D breast                 TGI   > 50 µM

Let us examine a further case.
Query string: Return reported TGI. Input compound: COc1ccc(S(=O)(=O)O)cc1NS(=O)(=O)c1ccc(C)cc1
Result string: > 100 µM

---

Tested on: SK-MEL-2 melanoma
Assay: NCI tumour cell line growth inhibition, 48 h
measured attribute: TGI (µM)
The reply should contain only the number, in µM.

The following compounds have reported results that may help.
                                   compound  display_unit  observed
0  CC(=O)OC1CCC2(C)C(CCC3C2CCC2(C)C(C4=CC(=O)OC4)CCC32)C1 (configuration not stated)            µM      34.4
1  O=C1C2C(C(=O)[N]1[Hg][c]1ccccc1)C1(Cl)C(Cl)=C(Cl)C2(Cl)C1(Cl)Cl (configuration not stated)            µM      3.15

Let us examine a further case.
Query string: Return reported TGI. Input compound: COc1cc(C/C=C/c2ccccc2)c(OC)cc1O
Result string: 52.3

---

This section presents compounds with their documented TGI values.
Test system: A498 renal
Experiment: NCI tumour cell line growth inhibition, 48 h

The following compounds have reported results that may help.
compound	TGI
CCN(CC)C(=S)SNCCc1ccc(S(N)(=O)=O)cc1	> 65.1 µM
CC1=C(C(=O)Nc2ccccc2C)C(c2ccc(N(C)C)cc2)C(C(=O)Nc2ccccc2C)=C(C)N1	> 100 µM
COC(=O)C1=C(OC(=O)/C(=C/c2ccc(Cl)cc2)c2ccccc2)C(C(=O)OC)[C@@]2(O)[C@@H](C(=O)OC)[C@H](C)C[C@@H]1[C@@H]2C(=O)OC (stereo not given in full)	> 100 µM
O=C1C[C@@H](c2ccccc2)NCCCCN(O)CCCN1	> 100 µM

Query string: Return reported TGI. Input compound: N#CSCC1COc2ccccc2O1 (stereo not given)
Result string: > 10 µM

---

This section presents molecules with their documented TGI values.
Test system: MALME-3M melanoma
Assay: NCI tumour cell line growth inhibition, 48 h

The following molecules have reported results that may help.
molecule	TGI
CC(=O)NC1C(OCc2ccccc2)OC(CO)C(O)C1OCC(=O)NC(C)C(=O)NC(CCC(=O)NCCCCCC(=O)Nc1ccc2c(c1)CN1C(=O)c3ccccc3C1=N2)C(N)=O (configuration not stated)	> 100 µM
Cc1ccccc1NC(=S)N/N=C(/c1ccccc1)c1ccccn1	11.8 µM
COC(=O)c1ccc(C)cc1C1CN=NC12Cc1cc(C)c(C)cc1C2=O (configuration not stated)	> 100 µM
Cc1cc(N(CCCNc2ccnc3cc(Cl)ccc23)Cc2cccs2)nc(Cl)n1	13.5 µM
COc1ccc(N2CCN(c3ccc4c(c3)NCC(=O)N4)CC2)cc1	> 100 µM
Cc1cc(=O)c2c(O)c3c(O)cc(O)c4c5c(O)cc(O)c6c(O)c7c(=O)cc(C)c8c1c2c(c34)c(c65)c78	> 100 µM

Let us examine a further case.
Query string: Return reported TGI. Input molecule: CC(C)(C)OC(=O)NC(CCCCNC(=O)OCc1ccccc1)C(=O)NC(CCCCNC(=O)OCc1ccccc1)C(=O)ON1C(=O)CCC1=O (configuration not stated)
Result string: > 100 µM

---

Test system: HT29 colon
Assay: NCI tumour cell line growth inhibition, 48 h
measured attribute: TGI (µM)
The reply should contain only the number, in µM.

>>> print(df.to_string())
                               compound  display_unit  observed
0  CCN(CC)C(=S)SNCCc1ccc(S(N)(=O)=O)cc1            µM      27.1
1              O=C(/C=C/c1cccs1)c1ccsc1            µM      41.7

Query string: Return reported TGI. Input compound: O=C(c1ccc(Cl)cc1)N1N=C(c2ccc(Cl)cc2)CC1(O)c1cc(F)c(Cl)cc1Cl (stereo unspecified)
Result string: 72.5

---

This section presents compounds with their documented TGI values.
Tested on: HCT-116 colon
Experiment: NCI tumour cell line growth inhibition, 48 h

>>> df
                                   compound  measured_attribute   observed
0  C=CCN1CC2CN=NC2(C#N)C1 (stereo not drawn)                 TGI   > 100 µM
1  O=C([C@H](O)[C@@H](O)c1ccc(Br)cc1)C12CC3CC(CC(C3)C1)C2                 TGI  > 51.9 µM

Let us examine a further case.
Query string: Return reported TGI. Input compound: Clc1ccccc1-c1nc2ccccc2[nH]1
Result string: > 100 µM

---

System: IGROV1 ovarian
Experiment: NCI tumour cell line growth inhibition, 48 h
measured attribute: TGI (µM)
The reply should contain only the number, in µM.

The following molecules have reported results that may help.
molecule	measured attribute	display unit	observed
COCC(=O)[C@]1(O)Cc2c(O)c3c(c(O)c2[C@@H](OC2CC(N)C(O)C(C)O2)C1)C(=O)c1c(OC)cccc1C3=O (stereo partly drawn)	TGI	µM	6.83
CC(C)OC(=O)c1ccc(CCC2=CC(=O)C(Br)=CC2=O)cc1	TGI	µM	27.8
O=C1c2ccccc2C2(c3ccc(Cl)cc3)NCc3ccccc3CN12 (stereo not drawn)	TGI	µM	94.7

Query string: For IGROV1 ovarian, give the measured TGI of the entry C/C1=C\CC[C@@](C)(O)[C@H]2C[C@H](CC/C(C)=C/CC1)C1(CC1)C(=O)O2
Result string: 39.7

Query string: For IGROV1 ovarian, give the measured TGI of the entry COc1cc2c3c(cc(Cl)nc3c1OC)C(O)(CC(C)=O)C(=O)N2 (stereo not drawn)
Result string: 36.6

Query string: For IGROV1 ovarian, give the measured TGI of the entry CSc1nc(Cl)c(Br)c(Nc2c[nH]c(=O)[nH]c2=O)n1
Result string: 19.9

---

Test system: CCRF-CEM leukemia
Assay: NCI tumour cell line growth inhibition, 48 h
This section presents compounds with their documented TGI values.

compound	TGI
C[C@@H]1CN(Cc2ccc(/C=C/c3n[nH]c4ccc5nc(-c6cn[nH]c6C(F)(F)F)c6c(c5c34)CCCC6)cc2)C[C@H](C)O1	34.2 µM
CCCCCC(/C=C/[C@@H]1CC(=O)C[C@H]1O[Si](C)(C)C(C)(C)C)OCOCCOC (stereo partly drawn)	> 100 µM
COc1cc(C)c(C(=O)/C=C/c2cc(OC)c(O)c(OC)c2)cc1O	62.7 µM
C=CCN1CC2CN=NC2(C#N)C1 (stereo not drawn)	> 100 µM
COc1cc2c(c3oc(-c4ccc5c(c4)OCO5)c(O)c(=O)c13)CCC(C)(C)O2	> 100 µM
CCOC(OCC)C(CCc1ccccc1)c1c(N)nc(N)[nH]c1=O (stereo not drawn)	> 100 µM
CN(C)c1nc(N(C)C)nc(N(C)CN(C)c2nc(N(C)C)nc(N(C)C)n2)n1	> 100 µM
Cc1cc(=O)c2c(O)c3c(O)cc(O)c4c5c(O)cc(O)c6c(O)c7c(=O)cc(C)c8c1c2c(c34)c(c65)c78	> 100 µM

Query string: Return reported TGI. Input compound: O=C1OCC2=C1C(c1cccc(F)c1)c1cc3c(cc1N2CCO)OCCO3 (stereo not drawn)
Result string: > 50 µM

Query string: Return reported TGI. Input compound: Cc1nc2ccccc2c(=O)n1NC(=O)Cc1ccccc1
Result string: > 100 µM

# credit: PubChem BioAssay (NCI)
